- System name: AKT2 (Homo sapiens, UniProt P31751)
- Sequence (P31751 whole entry): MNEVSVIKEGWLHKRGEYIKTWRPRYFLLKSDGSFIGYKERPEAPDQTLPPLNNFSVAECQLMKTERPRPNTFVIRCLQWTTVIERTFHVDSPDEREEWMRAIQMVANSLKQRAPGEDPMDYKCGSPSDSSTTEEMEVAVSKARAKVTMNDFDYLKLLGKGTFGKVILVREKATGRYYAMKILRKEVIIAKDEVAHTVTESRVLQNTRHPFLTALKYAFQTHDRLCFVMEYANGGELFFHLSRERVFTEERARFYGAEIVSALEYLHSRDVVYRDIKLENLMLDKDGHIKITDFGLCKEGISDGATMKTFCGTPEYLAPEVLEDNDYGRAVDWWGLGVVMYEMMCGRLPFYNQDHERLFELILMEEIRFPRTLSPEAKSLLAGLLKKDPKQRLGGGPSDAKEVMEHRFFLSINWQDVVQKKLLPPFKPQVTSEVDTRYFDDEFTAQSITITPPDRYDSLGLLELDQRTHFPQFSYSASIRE
- Procedure text: AKT Kinase Assay (IMAP fluorescent polarisation) vs AKT2
- Experimental parameters: activated AKT2, FAM Crosstide substrate
Structures can show the parent of a compound that is named as a salt.
Property measured: IC50

# Molecule, IC50
records = [
    ("Cn1ccc2c(-c3ccccc3)c(-c3ccc(C4(N)CCC4)cc3)oc2c1=O", "0.1 to 1 µM"),
    ("COc1nc(N2CCOCC2)nc2oc(-c3ccc(C4(N)CCC4)cc3)c(-c3ccccc3)c12", "0.1 to 1 µM"),
    ("NC1(c2ccc(-c3c(-c4ccccc4)oc4cccnc34)cc2)CCC1", "> 10 µM"),
    ("COc1nc(N2CC(CN)C2)nc2oc(-c3ccc(C4(N)CCC4)cc3)c(-c3ccccc3)c12", "0.1 to 1 µM"),
    ("N#Cc1cccc2c(-c3ccccc3)c(-c3ccc(C4(N)CCC4)cc3)oc12", "1 to 10 µM"),
    ("NC1(c2ccc(-c3oc4ccn(CC(F)(F)F)c(=O)c4c3-c3ccccc3)cc2)CCC1 [Example 109, HCl]", "≤ 0.1 µM"),
]

Notebook: Cn1c(N2CCC(O)CC2)nc2oc(-c3ccc(C4(N)CCC4)cc3)c(-c3ccccc3)c2c1=O [Example 59, hydrochloride] , IC50 read as ≤ 0.1 µM

Notebook: CSc1ncc2c(-c3ccccc3)c(-c3ccc(C4(N)CCC4)cc3)oc2n1 , IC50 read as 0.1 to 1 µM

Notebook: NC1(c2ccc(-c3oc4ncn(CC(F)F)c(=O)c4c3-c3ccccc3)cc2)CCC1 , IC50 read as ≤ 0.1 µM
